Biological target: Inhibitor of nuclear factor kappa-B kinase subunit epsilon (Homo sapiens) (UniProt Q14164);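 note: reported values are averaged percent inhibition figures against human IKKε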
Sequence (Q14164 whole entry): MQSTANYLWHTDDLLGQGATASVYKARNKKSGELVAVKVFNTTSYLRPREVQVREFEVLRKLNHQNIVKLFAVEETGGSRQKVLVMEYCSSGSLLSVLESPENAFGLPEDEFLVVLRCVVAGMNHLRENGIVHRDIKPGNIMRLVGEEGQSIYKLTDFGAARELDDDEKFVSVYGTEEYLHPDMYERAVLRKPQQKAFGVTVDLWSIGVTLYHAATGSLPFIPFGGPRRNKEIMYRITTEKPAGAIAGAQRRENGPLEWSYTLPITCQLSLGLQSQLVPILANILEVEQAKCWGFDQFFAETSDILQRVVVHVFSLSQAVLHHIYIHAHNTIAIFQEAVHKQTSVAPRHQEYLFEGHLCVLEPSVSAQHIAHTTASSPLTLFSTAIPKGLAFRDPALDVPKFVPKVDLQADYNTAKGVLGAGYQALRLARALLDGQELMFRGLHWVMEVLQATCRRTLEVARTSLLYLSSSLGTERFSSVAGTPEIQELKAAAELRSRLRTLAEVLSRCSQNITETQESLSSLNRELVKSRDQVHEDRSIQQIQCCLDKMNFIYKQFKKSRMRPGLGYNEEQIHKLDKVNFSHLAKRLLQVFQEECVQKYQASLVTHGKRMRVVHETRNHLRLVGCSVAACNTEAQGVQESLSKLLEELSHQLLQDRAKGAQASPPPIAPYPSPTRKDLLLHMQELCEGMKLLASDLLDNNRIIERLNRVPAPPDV
Details: at 1 µM
Observable: inhibition (%)

{"Compound": "CCn1c(-c2nonc2N)nc2cncc(C(=O)N3CC[C@H](N)C3)c21", "Readout Number": 36.1}
{"Compound": "CN1CCC(C(=O)Nc2n[nH]c3nnc(-c4ccccc4)cc23)CC1", "Readout Number": 6.54}
{"Compound": "CC1=C(C(=O)Nc2ccc3[nH]ncc3c2)C(c2ccc(F)cc2)NC(=O)N1 (stereo not given)", "Readout Number": 4.43}
{"Compound": "CCn1c(-c2nonc2N)nc2c(C#CC(C)(C)O)nc(CN3CCCC3)cc21", "Readout Number": 30}
{"Compound": "CNC(=O)c1cncc(/C=C/c2c(Cl)cccc2Cl)c1", "Readout Number": 6.17}
{"Compound": "COc1cc2ncn(-c3cc(O[C@@H](C)c4ccccc4Cl)c(C(N)=O)s3)c2cc1OC", "Readout Number": 7.74}
{"Compound": "Fc1cccc(COc2ccc(Nc3ncnc4sc(-c5cccs5)cc34)cc2Cl)c1", "Readout Number": 3.74}
{"Compound": "CS(=O)(=O)CCNCc1ccc(-c2ccc3ncnc(Nc4ccc(OCc5ccccc5)c(Cl)c4)c3c2)o1", "Readout Number": -0.15}
{"Compound": "CN(C)c1cc2c(Nc3ccc4nc(Cc5ccccc5)[nH]c4c3)ncnc2cn1", "Readout Number": 16.6}
{"Compound": "N#Cc1c(NC(=O)c2cccc3ccccc23)sc2c1CCCC2", "Readout Number": 1.87}
